All values here come from PubChem BioAssay AID2124.

assay.explanation: cell-permeable autofluorescent compounds in GFP channel, dose response, artefact control, imaging, high-content imaging (AID 2124);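 as to cell count: cells exposed to compound for 48 hours before fixing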
setup.conditions: cells, GFP-channel autofluorescence, high-content imaging; cell count; at 10 µM
Inconclusive results are not listed.
reported.metric: cell count (cells)
Answer with a number only, understood to be in cells.

Example compounds with recorded cell count:
> print(dat)
                                    compound  unit.text  recorded.result
 1  O=C(NC1=NCCS1)C1Cc2ccccc2CN1C(=O)c1ccccc1 (configuration not stated)      cells             2680
 2               COc1ccc(C)cc1NC(=O)COC(C)=O      cells             3030
 3  CC(C)C(C)(C#N)NC(=O)CSc1nnc(C(F)(F)F)n1C (configuration not stated)      cells             3010
 4  Cc1cc(C)cc(-n2c(=O)c3sccc3n(CC(=O)NCc3ccco3)c2=O)c1      cells             3120
 5  N#C/C(=C/c1ccc(N2CCOCC2)o1)C(=O)Nc1ccccc1      cells             3080
 6  Cc1cc2nc3c(=O)n(Cc4ccccc4)c(=O)[nH]c3nc2cc1N      cells             2710
 7  CCOCCCNc1nc2c(C)cccn2c(=O)c1/C=C1\SC(=S)N(CC(C)C)C1=O      cells             2900
 8  N#C/C(=C\C1=C(N2CCOCC2)C(=C/c2cccc([N+](=O)[O-])c2)/CC1)C(=O)Nc1ccccc1F      cells             2940
 9  COc1ccc(C2C(C(C)=O)=C(C)N=c3s/c(=C\c4cc(C)n(C)c4C)c(=O)n32)c(OC)c1 (configuration not stated)      cells             3650
10  CCC(C(=O)OCC(=O)Nc1cccc(S(=O)(=O)NC2=NCCCCC2)c1)c1ccccc1 (configuration not stated)      cells             3080

cell count reported for this compound `Cc1cccn2c(=O)c(/C=C3\SC(=S)NC3=O)c(NCCCN3CCOCC3)nc12` : 2700

cell count reported for this compound CN1C=CC2=C(C#N)C(N)C(C#N)(C#N)C(c3ccccc3)C2C1 (configuration not stated) : 2840

----------
assay.explanation: cell-permeable autofluorescent compounds in GFP channel, dose response, artefact control, imaging, high-content imaging (AID 2124);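 as to cell count: cells exposed to compound for 48 hours before fixing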
setup.conditions: cells, GFP-channel autofluorescence, high-content imaging; cell count; at 10 µM
Records with an inconclusive call do not appear.
Output yes for cell count not less than 3000 cells; output no otherwise.

> print(dat)
                                   molecule  category.label
1  CN(C)c1ccc(/C=C2\SC(=O)N(CCc3nnc(N)s3)C2=O)cc1             yes

Lookup: State whether the measured cell count reaches 3000 cells, counting equality as reaching it, for `CC1CCN(S(=O)(=O)c2ccc3c(c2)c(=O)c(C(=O)N2CCCCC2)cn3C)CC1`
Found: no

Lookup: State whether the measured cell count reaches 3000 cells, counting equality as reaching it, for `CCOC(=O)c1c(-c2ccc(C)cc2)csc1NC(=O)/C(C#N)=C/c1ccc(O)c(OC)c1`
Found: no

Lookup: State whether the measured cell count reaches 3000 cells, counting equality as reaching it, for CCn1nnc2sc3c(c2c1=O)CCC(C)C3 (stereo not drawn)
Found: yes

Lookup: State whether the measured cell count reaches 3000 cells, counting equality as reaching it, for `CCOC(=O)/C(C#N)=C/C=C1\C=Cc2ccccc2N1CC`
Found: no

Lookup: State whether the measured cell count reaches 3000 cells, counting equality as reaching it, for `Cc1cc2nc3c(=O)n(C4CCCCC4)c(=O)[nH]c3nc2cc1N`
Found: yes

Lookup: State whether the measured cell count reaches 3000 cells, counting equality as reaching it, for COC(=O)c1c(NC(=O)CC2Nc3cc(C)c(C)cc3NC2=O)sc(C)c1C (stereo not drawn)
Found: yes

Lookup: State whether the measured cell count reaches 3000 cells, counting equality as reaching it, for `Cc1ccccc1-n1ncc2c(SCC(=O)NCc3cccs3)ncnc21`
Found: no

----------
System: cells, GFP-channel autofluorescence, high-content imaging
assay.explanation: cell-permeable autofluorescent compounds in GFP channel, dose response, artefact control, imaging, high-content imaging (AID 2124)
Records with an inconclusive call do not appear. The source made the active and inactive calls. How the calls were made is not given here; tested in MIN6 cells.
Just give me one of these, please: true (1) (active), false (0) (inactive)

Use the examples below as a reference point.
> print(dat)
                                    compound  category.label
 1      COc1cc(/C=C(\C#N)c2nc3ccccc3o2)ccc1O        true (1)
 2           COc1ccc2nc(SCC(C)=O)c(C#N)cc2c1        true (1)
 3  CCOC(=O)CN1C(=O)S/C(=C/c2ccc(N3CCCCC3)o2)C1=O        true (1)
 4    Cc1cc(N2CCCC2)ccc1/C=C1\NC(=S)N(C)C1=O        true (1)
 5  CC(C)N1CC=C2C(C#N)=C(N)C(C#N)(C#N)C(c3ccccc3)C2C1 (centres undefined)        true (1)
 6              CCCN1C=CC(=CC=C(C#N)C#N)C=C1        true (1)
 7  CC(C)(C)NC(=S)N/N=C\c1ccc(-c2ccc([N+](=O)[O-])cc2)o1       false (0)
 8  N#Cc1c(NC(=S)NC(=O)c2ccccc2)sc2c1CCN(CCc1ccccc1)C2        true (1)
 9  Nc1c(C(=O)c2ccccc2)sc2nsc(SCCN3CCCC3)c12        true (1)
10  CCN(CC)c1ccc2cc(/C(N)=N/NC(=O)c3cccs3)c(=O)oc2c1        true (1)

Lookup: What call does the record list for `O=C(O)c1ccccc1N/N=C/c1c(Sc2nnnn2-c2ccccc2)nc2ccccn2c1=O` ?
Found: false (0)

Lookup: What call does the record list for `CN1CC=C2C(C#N)=C(N)C(C#N)(C#N)[C@H](c3ccoc3)[C@H]2C1` ?
Found: false (0)

Lookup: What call does the record list for `COc1cc(OC)c(-c2c3cc(O)c(=O)cc-3oc3cc(O)c(O)cc23)cc1OC` ?
Found: false (0)

Lookup: What call does the record list for `O=c1oc2cc(O)ccc2cc1-c1nc2c(s1)CCc1ccccc1-2` ?
Found: true (1)

Lookup: What call does the record list for `CC(=O)Nc1ccc(N=Cc2c(O)c(C(=O)Nc3ccccc3)cc3ccccc23)cc1` ?
Found: false (0)

Lookup: What call does the record list for `Cc1c(N=C2N=C(NC(=O)c3cccs3)c3ccccc32)c(=O)n(-c2ccccc2)n1C` ?
Found: false (0)

Lookup: What call does the record list for `CN(C)c1ccc(/C=C/C(=O)c2c(O)c3ccccc3oc2=O)cc1` ?
Found: false (0)

Lookup: What call does the record list for `Cn1c(/C(C#N)=C/c2ccc(-c3ccc(S(N)(=O)=O)cc3)o2)nc2ccccc21` ?
Found: true (1)

Lookup: What call does the record list for `CCN(CC)c1ccc2cc(C(=O)Nc3ccccn3)c(=O)oc2c1` ?
Found: true (1)

Lookup: What call does the record list for CN(C)c1ccc(/C=C/C(O)=C2/C(=O)N(C)C3(C)CC2c2ccccc2O3)cc1 (centres undefined) ?
Found: true (1)

----------
assay.explanation: cell-permeable autofluorescent compounds in GFP channel, dose response, artefact control, imaging, high-content imaging (AID 2124);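 as to cell count: cells exposed to compound for 48 hours before fixing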
setup.conditions: cells, GFP-channel autofluorescence, high-content imaging; cell count; at 10 µM
Records with an inconclusive call do not appear.
reported.metric: cell count (cells)
Answer with a number only, understood to be in cells.

cell count reported for this compound `COc1ccc(Cl)cc1NC(=O)c1c(-c2ccccc2)noc1C` : 3300

cell count reported for this compound O=C(NC1(C(F)(F)F)NC(=O)N(c2ccc(F)c(Cl)c2)C1=O)c1ccncc1 (centres undefined) : 3240

cell count reported for this compound `CC(C)NC(=O)N1CCN(c2ccncc2S(=O)(=O)N2CCOCC2)CC1` : 2900

cell count reported for this compound `COc1ccc2c(C(=O)CN(C)C3CCCCC3)c[nH]c2c1` : 3190

----------
In this section we review reported EC50 values for a set of molecules.
System: cells, GFP-channel autofluorescence, high-content imaging
assay.explanation: cell-permeable autofluorescent compounds in GFP channel, dose response, artefact control, imaging, high-content imaging (AID 2124)
Records with an inconclusive call do not appear. Active and inactive are the calls of the source. How the calls were made is not given here; tested in MIN6 cells.

> print(dat)
                                   molecule     recorded.result
1  COC(=O)c1cc2c(-c3ccccc3)c(C)c3ccccn3c-2c1C(=O)OC  11.3 µM (inactive)
2        CCCNc1c(F)c(F)c2c(C)c3ccccc3nc2c1F  10.9 µM (inactive)
3   CC(C)/C=C1\CC/C(=C\c2ccc(N(C)C)cc2)C1=O             9.45 µM

Next, consider the following molecule.
EC50 reported for this molecule `Cc1c2ccccc2nc2c(F)c(NC(C)C)c(F)c(F)c12` : 9.12 µM
